Molecular target: T1, human Proprotein Convertase Subtilisin-like/Kexin type 9 (human, UniProt Q8NBP7 31-692, limits assumed)
T1 construct: Biotinylated in the ELISAs; unlabelled analyte in BLI and SPR; also called human PCSK9; PCSK9
T1 sequence (Q8NBP7 31-692 limits assumed): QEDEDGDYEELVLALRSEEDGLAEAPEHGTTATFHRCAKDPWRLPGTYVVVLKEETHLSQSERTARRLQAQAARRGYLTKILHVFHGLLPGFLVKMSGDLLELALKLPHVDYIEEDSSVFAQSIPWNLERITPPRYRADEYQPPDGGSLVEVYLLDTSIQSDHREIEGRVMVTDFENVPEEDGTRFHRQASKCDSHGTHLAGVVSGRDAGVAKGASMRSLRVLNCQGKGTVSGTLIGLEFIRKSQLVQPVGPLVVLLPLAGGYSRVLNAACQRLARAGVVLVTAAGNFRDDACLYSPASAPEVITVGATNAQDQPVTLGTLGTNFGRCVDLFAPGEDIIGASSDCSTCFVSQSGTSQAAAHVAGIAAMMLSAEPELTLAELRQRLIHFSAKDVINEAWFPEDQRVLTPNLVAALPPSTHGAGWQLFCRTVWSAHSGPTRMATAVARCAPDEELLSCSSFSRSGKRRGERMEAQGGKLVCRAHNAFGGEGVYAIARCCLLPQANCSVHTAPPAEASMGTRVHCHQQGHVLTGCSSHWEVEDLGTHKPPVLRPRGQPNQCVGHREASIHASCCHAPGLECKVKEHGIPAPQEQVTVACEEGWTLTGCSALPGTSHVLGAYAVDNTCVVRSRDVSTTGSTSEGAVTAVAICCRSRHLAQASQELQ
Experiment: SPR (ProteOn XPR36), biotinylated antibody on neutravidin chip, human PCSK9 as analyte, 1:1 fit, mean of 4 densities
observable: kon (M⁻¹ s⁻¹)
Number only, in M⁻¹ s⁻¹; omit the unit.

Solved cases (3 shown):
Ab21 (antibody, human IgG1, kappa, N297A, V domains shown, also called antibody Ab21) VH: QSVEESGGRLVTPGTPLTLTCTVSGFSLSSYAMNWVRQAPGKGLEWIGAIRSSGATFFASWVNGRFTISKTSTTVDLKITSPTPEDTATYFCARDTNDGWYINRLDLWGPGTLVTVSS VL: AAVLTQTPSPVSAAVGGTVSISCQSSKSVYSNYLSWFQQKPGQPPKFLIYKASTLASGVPSRFKGSGSGTQFTLTISDVQCDDAATYYCAGGDTNISDNAFGGGTEVVVKR :: 580000
Ab22 (antibody, human IgG1, kappa, N297A, V domains shown, also called antibody Ab22) VH: EVQLVESGGGLVQPGGSLRLSCAASGFSLSSYAMNWVRQAPGKGLEWIGAIRSSGATFFASSVNGRFTISRDNSKNTVYLQMNSLRAEDTAVYYCARDTNDGWYINRLDLWGQGTLVTVSS VL: AVLTQSPSTLSASVGDRVTITCQSSKSVYSNYLSWFQQKPGKAPKFLIYKASTLASGVPSRFSGSGSGTEFTLTISSLQPDDFATYYCAGGDTNIADNAFGGGTKVEIKR :: 529000
Ab23 (antibody, human IgG1, kappa, N297A, V domains shown, also called antibody Ab23) VH: QSLEESGGDLVKPGASLTLTCKASGFSFSSGYYMCWVRQAPGKGLEWIACIYAGSGGSTFFANWAKGRFTISKTSSTTVTLQMTSLTAADTATYFCARDGGYAGYGYAFFNLWGPGTLVTVSS VL: DVVMTQTPASVSEPVGGTVTIKCQASERIYSGLAWYQQKPGQPPKLLIYGASTLASGVPSRFKGSGSGTDFTLTISDLECDDAAIYYCQCTYYGSSYPNVFGGGTEVVVKR :: 928000

Quick note, kon for Ab24 (antibody, human IgG1, kappa, N297A, V domains shown, also called antibody Ab24) VH: QSLEESGGDLVKPGASLTLTCKASGFSFSSGYYMCWVRQAPGKGLEWIACIYAGSGGSTFFANWAKGRFTISKTSSTTVTLQMTSLTAADTATYFCARDGGYAGYGYAFFNLWGPGTLVTVSS VL: DVVMTQTPASVSEPVGGTVTIKCQASERIYSGLAWYQQKPGQPPKLLIYGASTLASGVPSRFKGSGSGTDFTLTISDLECDDAAIYYCQATYYGSSYPNVFGGGTEVVVKR landed at 684000
